TGI by entry:
- Test system: NCI-H226 lung
- assayOverview: NCI tumour cell line growth inhibition, 48 h

Known results for molecules:
Request: // TGI lookup, key: `CNC(=O)N1N[C@H](c2ccccc2)[C@@H]1c1ccccc1`
Result: 32.8 µM

Request: // TGI lookup, key: `COc1cc(-c2ncn(/C=C\c3nnco3)n2)cc(C(F)(F)F)c1`
Result: 4.3 µM

# next molecule below
Request: // TGI lookup, key: COc1cc(/C=C/C(=O)O[C@H]2[C@H](O[C@@H]3O[C@@H](C)[C@H](O)[C@@H](O)[C@H]3O)[C@@H](O)[C@H](OCCc3ccc(O)c(O)c3)O[C@@H]2COC2OCC(O)(CO)C2O)ccc1O (stereo not given in full)
Result: > 100 µM
